All figures here come from Sander's compilation of Henry's law constants (doi:10.1016/0304-3894(88)85057-x).

Entries and their measured Henry solubility constant Hcp follow.
TEST_PROTOCOL: Henry solubility constant Hcp at 298.15 K (mol/(m3 Pa))
TEST_CONDITIONS: reference: Ashworth et al. (1988)

# INPUT_SMILES, Henry solubility constant Hcp
rows = [
    ("COCCO", 0.00022),
    ("CCCCCC", "9.9e-06"),
    ("CC(=O)CC(C)C", 0.022),
    ("C=C(Cl)Cl", 0.00037),
    ("C=CCl", 0.0004),
    ("Clc1cccc(Cl)c1", 0.003),
    ("Cc1cccc(C)c1", 0.0013),
    ("ClC(Cl)(Cl)Cl", 0.00033),
    ("ClC(Br)Br", 0.0085),
]

----------
TEST_PROTOCOL: Henry solubility constant Hcp at 298.15 K (mol/(m3 Pa))
TEST_CONDITIONS: reference: Ashworth et al. (1988)

# MOLECULE, Henry solubility constant Hcp
records = [
    ("Cc1cc(C)cc(C)c1", 0.0014),
    ("ClCCl", 0.0034),
    ("CCCl", 0.00079),
    ("c1ccc2c(c1)CCCC2 [1,2,3,4-tetrahydronaphthalene]", 0.0051),
    ("Cc1ccccc1", 0.0015),
    ("CCCc1ccccc1", 0.0009),
    ("c1ccccc1", 0.0018),
    ("CC(C)c1ccccc1", 0.0016),
    ("ClC=C(Cl)Cl", 0.00095),
    ("C1CCC2CCCCC2C1 (stereo not drawn) [decahydronaphthalene]", "7.2e-05"),
    ("CCc1ccccc1", 0.0012),
    ("ClC(Cl)=C(Cl)Cl", 0.00054),
    ("CC(Cl)CCl (stereo not drawn)", 0.0038),
]

----------
TEST_PROTOCOL: Henry solubility constant Hcp at 298.15 K (mol/(m3 Pa))
TEST_CONDITIONS: reference: Ashworth et al. (1988)
Threshold rule: Henry solubility constant Hcp greater than or equal to 0.003 is Yes; below that, No.

# MOLECULE, CLASS_NAME
data = [
    ("Cc1ccccc1C", "No"),
    ("CCCCCCCCC", "No"),
    ("CCCC(C)C", "No"),
    ("C1CCCCC1", "No"),
    ("ClC(Cl)C(Cl)Cl", "Yes"),
    ("ClC(Cl)(Cl)C(Cl)(Cl)Cl", "No"),
    ("Clc1ccc(Cl)cc1", "Yes"),
    ("Cc1ccc(O)c(C)c1 [1-hydroxy-2,4-dimethylbenzene]", "No"),
    ("Cc1ccc(C)cc1", "No"),
    ("ClCC(Cl)Cl", "Yes"),
    ("CC(Cl)(Cl)Cl", "No"),
    ("Clc1ccccc1", "No"),
]
